The values you see were collected from paper PMC6010123.

Target entity: Jack bean urease (Canavalia ensiformis)
Construct: purchased Sigma (St. Louis, MO, USA)
Sequence (P07374 whole entry, looked up): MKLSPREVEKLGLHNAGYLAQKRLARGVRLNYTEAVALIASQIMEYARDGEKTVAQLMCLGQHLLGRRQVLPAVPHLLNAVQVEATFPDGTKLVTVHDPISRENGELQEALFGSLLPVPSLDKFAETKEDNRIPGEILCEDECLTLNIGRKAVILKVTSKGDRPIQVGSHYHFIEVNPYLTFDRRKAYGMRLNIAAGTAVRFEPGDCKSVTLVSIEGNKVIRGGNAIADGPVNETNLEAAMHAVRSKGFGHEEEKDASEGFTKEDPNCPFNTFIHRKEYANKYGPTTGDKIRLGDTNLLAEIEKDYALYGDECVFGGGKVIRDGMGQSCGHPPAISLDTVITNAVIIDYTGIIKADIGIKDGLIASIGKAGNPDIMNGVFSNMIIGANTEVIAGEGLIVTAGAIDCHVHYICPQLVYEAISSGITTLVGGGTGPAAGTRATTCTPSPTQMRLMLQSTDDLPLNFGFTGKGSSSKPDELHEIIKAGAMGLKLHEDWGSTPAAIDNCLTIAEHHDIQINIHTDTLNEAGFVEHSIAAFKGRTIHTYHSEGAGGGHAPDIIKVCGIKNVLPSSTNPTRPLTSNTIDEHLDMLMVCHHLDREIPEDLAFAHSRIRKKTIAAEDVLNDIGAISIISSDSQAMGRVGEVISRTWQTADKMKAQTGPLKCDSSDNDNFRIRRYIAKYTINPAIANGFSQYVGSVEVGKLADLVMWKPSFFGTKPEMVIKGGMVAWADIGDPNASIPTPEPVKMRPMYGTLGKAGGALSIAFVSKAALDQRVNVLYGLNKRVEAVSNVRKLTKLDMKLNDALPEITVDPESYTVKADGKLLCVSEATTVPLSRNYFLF
Method: Kinetic study of urease inhibition (Lineweaver-Burk, secondary replot, Dixon plot)
Type: biochemical
pKi: −log10 of the molar value.
Readout name: pKi

# Smiles representation, Observed value
measured = [
    ("CCOc1ccc(S(=O)(=O)N[C@@H](C)CO)cc1-c1nnc2c(n1)c(C)nn2C", 8.00),
]

* * *

Target entity: Jack bean urease (EC 3.5.1.5) (Canavalia ensiformis, UniProt P07374)
Construct: purchased Sigma (St. Louis, MO, USA)
Sequence (P07374 whole entry, looked up): as above
Method: biochemical
Protocol conditions: read-out: Urease IC50; Jack bean urease, 100 mM urea, pH 8.2, 37 °C
pIC50: −log10 of the molar value.

# Smiles representation, Target entity, pIC50
records = [
    ("CCOc1ccc(S(=O)(=O)NC[C@@H](C)O)cc1-c1nnc2c(n1)c(C)nn2C", "Jack bean urease (EC 3.5.1.5) (Canavalia ensiformis, UniProt P07374)", 7.36),
]
